Give BL50 for every item shown.
molecular target: HLA-A*0201 (human), P04439; assay: T2 cell HLA-A*0201 stabilisation, affinity category by BL50

Can you share its BL50? I mean this binder: TLGVLVPHV (modifications not checked) [pp1a-103]
< 100 µM

Can you share its BL50? I mean this binder: MLSRALKKV (modifications not checked) [pp1a-1288]
< 100 µM

Can you share its BL50? I mean this binder: ALSGVFCGV (modifications not checked) [pp1a-2990]
< 100 µM

Can you share its BL50? I mean this binder: QLSLPVLQV (modifications not checked) [pp1a-15]
< 100 µM

Can you share its BL50? I mean this binder: VLLSVLQQL (modifications not checked) [pp1a-3848]
100 to 200 µM

Can you share its BL50? I mean this binder: KLSAGVEFL (modifications not checked) [pp1a-634]
< 100 µM
